Read-out: Collagen I, COL1A1 (gene 1277)
Assay: BSK_hDFCGF_CollagenI: BioMAP Diversity Plus: hDFCGF Assay for Collagen I Biomarker Activity (AID 2284250)
Conditions: primary human foreskin fibroblasts
Calls of active or inactive are those of the source. The calls were made as follows: active = hit-call score of the fitted dose curve at least 0.9, where 1 is the maximum; inactive = score below 0.9.
parameter: outcome

Some solved cases for reference:
compound_structure=O=P(O)(O)CCC(F)(F)C(F)(F)C(F)(F)C(F)(F)C(F)(F)C(F)(F)C(F)(F)C(F)(F)F measured_result=inactive
compound_structure=C=CC(=O)OCCC(F)(F)C(F)(F)C(F)(F)C(F)(F)C(F)(F)C(F)(F)C(F)(F)C(F)(F)F measured_result=inactive
compound_structure=O=C(O)CCC(F)(F)C(F)(F)C(F)(F)C(F)(F)C(F)(F)C(F)(F)F measured_result=inactive
compound_structure=O=P(O)(O)CCC(F)(F)C(F)(F)C(F)(F)C(F)(F)C(F)(F)C(F)(F)F measured_result=inactive
compound_structure=Oc1ccc(Cc2ccccc2O)cc1 measured_result=inactive

Read the next record carefully.
Consider the molecule `O=C1NS(=O)(=O)c2ccccc21` and give its recorded outcome.
inactive

###

Assay: BSK_3C_VCAM1: BioMAP Diversity Plus: 3C Assay for Vascular cell adhesion molecule 1 (VCAM1) Biomarker Activity (AID 2282999)
Conditions: BioMAP 3C HUVEC, VCAM1 ELISA, cytokine-stimulated; actives raise or lower the signal
Calls of active or inactive are those of the source. The calls were made as follows: active = hit-call score of the fitted dose curve at least 0.9, where 1 is the maximum; inactive = score below 0.9.
Hi! Could you answer with just one of these? Yes (active), No (inactive)

Reference set (8 entries):
compound_structure=OCC(CO)(CBr)CBr cat=No
compound_structure=CN(C)c1ccc(C(=C2C=CC(=[N+](C)C)C=C2)c2ccccc2)cc1 cat=Yes
compound_structure=O=P(O)(O)CCC(F)(F)C(F)(F)C(F)(F)C(F)(F)C(F)(F)C(F)(F)F cat=No
compound_structure=CCOC(=O)CN[C@@H](C(=O)N1CC[C@H]1C(=O)NCc1ccc(/C(N)=N/O)cc1)C1CCCCC1 cat=No
compound_structure=Cc1ccc(C(=O)c2ccccc2)cc1 cat=Yes
compound_structure=O=C(O)CCC(F)(F)C(F)(F)C(F)(F)C(F)(F)C(F)(F)F cat=No
compound_structure=NC(=NCCCCCCN=C(N)/N=C(\N)Nc1ccc(Cl)cc1)/N=C(\N)Nc1ccc(Cl)cc1 cat=Yes
compound_structure=CCCCCCCCCCCC cat=No

Hello, I am checking results. What call was entered for `CCCCc1oc2ccccc2c1C(=O)c1cc(I)c(OCCN(CC)CC)c(I)c1` ?
Yes

Hello, I am checking results. What call was entered for `Cc1cccc2c1ccc1ccccc12` ?
No

Recorded call for `O=C(NCc1ncc(C(F)(F)F)cc1Cl)c1c(Cl)cccc1Cl` ?
No

###

Read-out: Tumor necrosis factor (Homo sapiens) (UniProt P01375)
Sequence (P01375 whole entry, looked up): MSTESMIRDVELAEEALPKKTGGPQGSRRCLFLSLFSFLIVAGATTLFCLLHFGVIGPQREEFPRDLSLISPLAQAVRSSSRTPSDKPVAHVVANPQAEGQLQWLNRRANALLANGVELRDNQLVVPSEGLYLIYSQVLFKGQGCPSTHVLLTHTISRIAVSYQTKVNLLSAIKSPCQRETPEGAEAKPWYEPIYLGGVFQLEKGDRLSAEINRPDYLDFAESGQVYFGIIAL
Assay: BSK_BT_xTNFa: BioMAP Diversity Plus: BT Assay for Tumor necrosis factor alpha (TNF-alpha) Biomarker Activity (AID 2284230)
Details: primary human B cells with PBMC
Calls of active or inactive are those of the source. How the source made its calls: active means hit-call score of the fitted dose curve at least 0.9, where 1 is the maximum; inactive means score below 0.9.
parameter: AC50

compound=Cc1ccc(C(=O)c2ccccc2)cc1 measured_result=inactive
compound=C=COC(=O)C(C)(C)CCCCCC measured_result=inactive
compound=CCOC(=O)CN[C@@H](C(=O)N1CC[C@H]1C(=O)NCc1ccc(/C(N)=N/O)cc1)C1CCCCC1 measured_result=inactive
compound=CN(Cc1cnc2nc(N)nc(N)c2n1)c1ccc(C(=O)N[C@@H](CCC(=O)O)C(=O)O)cc1 measured_result=inactive
compound=Cc1ccc(N=Nc2c(O)ccc3ccccc23)c(C)c1 measured_result=inactive

Give me measured AC50, please, for this compound: `C=CC(=O)OCCC(F)(F)C(F)(F)C(F)(F)C(F)(F)C(F)(F)C(F)(F)C(F)(F)C(F)(F)F`
inactive

Note AC50 for the compound shown: `Cc1cccc2c1ccc1ccccc12`
inactive

Please list AC50 recorded for the compound `COc1cccc(O)c1`
inactive

Tell me measured AC50 for `OCCN1CN(CCO)CN(CCO)C1` please.
34.1 µM (active)

Quick one: give measured AC50 for `O=C1c2ccc(O)c(O)c2C(=O)c2c(O)ccc(O)c21`
inactive
